B1: Androgen receptor, residues 557 to 632; numbered along this chain, P10275 (parent)
chain: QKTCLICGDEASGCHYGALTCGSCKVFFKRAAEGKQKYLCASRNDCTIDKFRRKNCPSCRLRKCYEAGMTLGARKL

# Variants of: B1
# Experiment: abundance fitness (aPCA) (normalised: wild type 0, dead -1); higher = more abundant; growth selection in yeast, the domain comes from the species named
# Settings: Homo sapiens
// abundance fitness lookup, one value per entry

Mutation spec: R30I
abundance fitness: -0.067
--
Mutation spec: C24S
abundance fitness: -1.1
--
Mutation spec: G17W
abundance fitness: -0.645
--
Mutation spec: C21I
abundance fitness: -0.777
--
Mutation spec: D49N
abundance fitness: -0.188
--
Mutation spec: C56D
abundance fitness: -0.663
--
Mutation spec: Y38L
abundance fitness: -0.046
--
Mutation spec: Y65Q
abundance fitness: -0.037
--
Mutation spec: D9R
abundance fitness: -0.378
--
Mutation spec: G13R
abundance fitness: -0.2
--
Mutation spec: C56L
abundance fitness: -0.498
--
Mutation spec: Y16M
abundance fitness: -0.11
--
Mutation spec: K25S
abundance fitness: 0.03
--
Mutation spec: T3G
abundance fitness: -0.078
--
Mutation spec: N55A
abundance fitness: 0.089
--
Mutation spec: R74Q
abundance fitness: 0.023
--
Mutation spec: T20R
abundance fitness: -0.859
--
Mutation spec: C64G
abundance fitness: -0.606
--
Mutation spec: G17T
abundance fitness: -0.411
--
Mutation spec: Q36Y
abundance fitness: -0.189
--
Mutation spec: C64K
abundance fitness: -0.805
--
Mutation spec: T47N
abundance fitness: -0.067
